Recorded self-splicing fitness (ln) by entry
- ASSAY_TEXT: self-splicing fitness, log relative to wild type (ln ratio); higher = more splicing; Tetrahymena group I intron in knt gene, E. coli kanamycin selection, DiMSum; sequences stand for … in CUCUCU…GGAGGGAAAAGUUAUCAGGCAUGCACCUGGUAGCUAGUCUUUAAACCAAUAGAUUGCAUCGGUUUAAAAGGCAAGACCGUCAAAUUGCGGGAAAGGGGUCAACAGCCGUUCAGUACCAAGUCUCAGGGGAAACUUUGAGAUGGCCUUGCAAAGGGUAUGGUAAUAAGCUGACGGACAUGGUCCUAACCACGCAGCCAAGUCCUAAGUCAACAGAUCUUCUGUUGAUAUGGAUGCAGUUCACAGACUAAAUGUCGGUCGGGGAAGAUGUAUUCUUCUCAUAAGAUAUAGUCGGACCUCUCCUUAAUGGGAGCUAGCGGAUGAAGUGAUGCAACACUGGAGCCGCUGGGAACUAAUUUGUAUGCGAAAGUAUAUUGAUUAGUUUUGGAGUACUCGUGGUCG;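 note: selection with 25 µg/mL kanamycin versus none on LB agar overnight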
- SETUP_CONDITIONS: 30 °C
MEASURED_METRIC: self-splicing fitness (ln)

> print(dat)
           sequence.data  quantitative.result
 1  UCAUAGCAAUAUUACGAGAA                -2.05
 2  GUGAAGCAAUAUUACGAUAA               -0.524
 3  CCGAAGCAAUAUUACGUUCC                -3.94
 4  GAACAGCAAUAUUACGUAAA               -0.541
 5  UUCGAGCAAUAUUACGCAGU                -2.87
 6  GGACAGCAAUAUUACGUCAC                -2.41
 7  CUUCAGCAAUAUUACGAGCC                -2.29
 8  CGCUAGCAAUAUUACGCAUC                -3.88
 9  UGGGAGCAAUAUUACGCUAG                -2.79
10  CGCCAGCAAUAUUACGAAGA                -2.64
11  UUUUAGCAAUAUUACGUCGA               -0.866
12  UGGUAGCAAUAUUACGGGGA                -2.58
13  UGGUAGCAAUAUUACGGGCA              -0.0931
14  AUCGAGCAAUAUUACGUCUA                -3.26
15  UAGAAGCAAUAUUACGGAGA                -3.26
16  CCCCAGCAAUAUUACGACUA                -2.66
17  CCCAAGCAAUAUUACGAGCA                -3.01
18  CGAUAGCAAUAUUACGACGU               -0.903
19  CCGCAGCAAUAUUACGGAAC                -3.52
20  AUCUAGCAAUAUUACGUCUG                -1.72
21  AGAUAGCAAUAUUACGGGCU                -1.34
22  UUAUAGCAAUAUUACGUUUG                -2.12
23  UUUAAGCAAUAUUACGUAUU                -2.16
24  AGGUAGCAAUAUUACGGUGA                -1.73
25  AUAUAGCAAUAUUACGGGAA                 -2.9
26  UGAGAGCAAUAUUACGCCCA                -1.49
27  CUCUAGCAAUAUUACGCUUU                -3.13
28  ACUUAGCAAUAUUACGUAGG                -1.25
29  GAGUAGCAAUAUUACGUCCA                -1.32
30  AGAGAGCAAUAUUACGGUCA                -2.48
31  GUGUAGCAAUAUUACGAUGC                -1.85
32  GUGCAGCAAUAUUACGCCCG                -1.69

====

- ASSAY_TEXT: self-splicing fitness, log relative to wild type (ln ratio); higher = more splicing; Tetrahymena group I intron in knt gene, E. coli kanamycin selection, DiMSum; sequences stand for … in CUCUCU…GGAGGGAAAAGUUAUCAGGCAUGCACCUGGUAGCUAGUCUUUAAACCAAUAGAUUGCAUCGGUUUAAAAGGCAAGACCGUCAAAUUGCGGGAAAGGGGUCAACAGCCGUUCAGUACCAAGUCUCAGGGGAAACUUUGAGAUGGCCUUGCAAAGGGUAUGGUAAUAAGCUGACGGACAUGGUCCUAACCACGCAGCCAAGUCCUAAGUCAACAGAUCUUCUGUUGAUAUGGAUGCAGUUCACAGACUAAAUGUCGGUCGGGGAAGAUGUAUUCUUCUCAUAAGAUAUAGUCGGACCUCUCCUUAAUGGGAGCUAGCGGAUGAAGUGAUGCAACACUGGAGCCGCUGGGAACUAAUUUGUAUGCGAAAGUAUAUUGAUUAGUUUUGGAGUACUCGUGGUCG
- SETUP_CONDITIONS: 37 °C
Parameter threshold = -0.5. Response is 1.0 when self-splicing fitness (ln) meets or exceeds it, else 0.0.

> print(dat)
           sequence.data  class
 1  AAGAAGCAAUAUUACGGAUG    0.0
 2  AUGUAGCAAUAUUACGCGAG    0.0
 3  AGCUAGCAAUAUUACGUGCU    0.0
 4  CAUUAGCAAUAUUACGCUAG    0.0
 5  GGACAGCAAUAUUACGUAAG    1.0
 6  AGGAAGCAAUAUUACGCUUU    0.0
 7  GGUCAGCAAUAUUACGGCCA    0.0
 8  GCGAAGCAAUAUUACGGCGA    1.0
 9  AUUUAGCAAUAUUACGCAGA    0.0
10  UAUCAGCAAUAUUACGGUGA    1.0
11  AGGCAGCAAUAUUACGAGCG    1.0
12  AGGGAGCAAUAUUACGAAGU    0.0
13  ACCGAGCAAUAUUACGAGAA    0.0
14  AGCCAGCAAUAUUACGUAGG    0.0
15  UUCUAGCAAUAUUACGUGUG    0.0
16  CAGCAGCAAUAUUACGACCG    1.0
17  AACCAGCAAUAUUACGAAAU    1.0
18  UCCGAGCAAUAUUACGGGCA    0.0
19  UUGGAGCAAUAUUACGGAGG    0.0
20  UUGCAGCAAUAUUACGAGAU    0.0
21  AUCGAGCAAUAUUACGGCCG    0.0
22  AUGAAGCAAUAUUACGACUC    1.0
23  ACAAAGCAAUAUUACGCCUG    1.0
24  GGAAAGCAAUAUUACGGAGA    0.0
25  GAUGAGCAAUAUUACGAGUU    0.0
26  UUGUAGCAAUAUUACGCGUU    0.0

====

- ASSAY_TEXT: self-splicing fitness, log relative to wild type (ln ratio); higher = more splicing; Tetrahymena group I intron in knt gene, E. coli kanamycin selection, DiMSum; sequences stand for … in CUCUCU…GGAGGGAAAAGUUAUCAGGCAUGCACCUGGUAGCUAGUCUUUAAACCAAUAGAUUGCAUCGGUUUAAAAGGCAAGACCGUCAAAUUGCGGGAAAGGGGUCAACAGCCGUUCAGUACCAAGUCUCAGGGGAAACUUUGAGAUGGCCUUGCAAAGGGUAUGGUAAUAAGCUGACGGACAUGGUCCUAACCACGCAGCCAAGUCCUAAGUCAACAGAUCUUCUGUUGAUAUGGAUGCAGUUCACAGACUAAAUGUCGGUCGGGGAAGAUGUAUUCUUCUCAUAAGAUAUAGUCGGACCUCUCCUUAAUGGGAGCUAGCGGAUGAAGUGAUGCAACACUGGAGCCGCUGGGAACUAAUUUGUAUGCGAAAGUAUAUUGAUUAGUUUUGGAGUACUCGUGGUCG
- SETUP_CONDITIONS: 30 °C
Label true when self-splicing fitness (ln) >= -2; otherwise false.

> print(dat)
          sequence.data  class
1  GCGAAGCAAUAUUACGUUAA   true
2  UCCAAGCAAUAUUACGAAUG  false
3  UAGAAGCAAUAUUACGUGUG   true
4  GUCAAGCAAUAUUACGUCAU  false
5  AGGCAGCAAUAUUACGUCUC  false
6  CACAAGCAAUAUUACGUCAC  false
7  GGCAAGCAAUAUUACGAGUU   true
8  CUCCAGCAAUAUUACGUGUG  false
